Please provide measured pEC50 for the entries that follow.
- Tgt: μ-opioid receptor (Homo sapiens)
- Sequence (P35372 whole entry, species assumed): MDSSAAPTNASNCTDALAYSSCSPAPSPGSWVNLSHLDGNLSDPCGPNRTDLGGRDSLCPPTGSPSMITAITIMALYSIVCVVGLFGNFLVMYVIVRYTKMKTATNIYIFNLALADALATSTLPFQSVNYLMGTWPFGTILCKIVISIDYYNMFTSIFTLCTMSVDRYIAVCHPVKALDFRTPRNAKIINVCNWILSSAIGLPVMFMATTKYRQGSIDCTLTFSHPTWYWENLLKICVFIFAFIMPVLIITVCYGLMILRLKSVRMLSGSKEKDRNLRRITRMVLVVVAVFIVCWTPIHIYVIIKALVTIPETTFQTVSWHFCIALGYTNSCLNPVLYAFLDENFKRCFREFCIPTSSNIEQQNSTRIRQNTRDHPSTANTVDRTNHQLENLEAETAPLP
- Assay notes: μ-opioid receptor [35S]GTPγS functional assay, HEK-293 or CHO cells
- Format: biochemical
pEC50: −log10 of the molar value.

Prompt line: Query (compound): CCC(=O)N[C@H]1C[C@@]2(O)[C@H]3Cc4ccc(O)cc4[C@@]2(CCN3CC2CC2)C[C@@H]1O ; field requested: pEC50
Response line: < 4.70

Prompt line: Query (compound): CN(C)CC(=O)N[C@H]1C[C@@]2(O)[C@H]3Cc4ccc(O)cc4[C@@]2(CCN3CC2CC2)C[C@@H]1O ; field requested: pEC50
Response line: < 4.70

Prompt line: Query (compound): COc1ccc2c(c1)[C@]13CCN(C)[C@H](C2)[C@H]1[C@H](O)C[C@@H](OCCO)C3 ; field requested: pEC50
Response line: < 4.70

Prompt line: Query (compound): CC(C)C(=O)N[C@H]1C[C@H]2[C@H]3Cc4ccc(O)cc4[C@@]2(CCN3CC2CC2)C[C@H]1O ; field requested: pEC50
Response line: 7.18
